Recorded values, source ChEMBL document CHEMBL2034938.

What IC50 was measured for each of the following?
System: SW480
assay: Cytotoxicity against human SW480 cells by after 48 hrs by MTT assay
Type: functional, cell-based
assaySetup: SW480, 48 h
// return numeric value only (unit: µM, not printed)

Q: Tell me the measured IC50 of `Cc1ccc(Cn2cc(COc3ccc4c(=O)ccoc4c3)nn2)cc1` , please.
Result: 10.4

Q: Let us now turn to `O=c1ccoc2cc(OCc3cn(Cc4ccc(F)cc4)nn3)ccc12`
Result: 11.2

Q: Follow-up entry: `CC(C)(C)c1ccc(Cn2cc(COc3ccc4c(=O)ccoc4c3)nn2)cc1`
Result: 28.8

Q: Also check `O=c1ccoc2cc(OCc3cn(Cc4cccc(Cl)c4)nn3)ccc12`
Result: 12.9

Q: Also check `O=c1ccoc2cc(OCc3cn(Cc4ccccc4)nn3)ccc12`
Result: 42.9

Q: Repeat with `Cc1cccc(Cn2cc(COc3ccc4c(=O)ccoc4c3)nn2)c1`
Result: 11.7

Q: Another molecule to look at: `O=c1ccoc2cc(OCc3cn(Cc4ccccc4Cl)nn3)ccc12`
Result: 23.5

Q: Also need `COc1ccc(Cn2cc(COc3ccc4c(=O)ccoc4c3)nn2)cc1` , thanks.
Result: 20.4

Q: Request: `O=c1ccoc2cc(OCc3cn(Cc4ccc(Br)cc4)nn3)ccc12`
Result: 37.5

Q: Request: `O=c1ccoc2cc(OCc3cn(Cc4ccc([N+](=O)[O-])cc4)nn3)ccc12`
Result: 19.3

Q: And `O=c1ccoc2cc(OCc3cn(Cc4ccccc4F)nn3)ccc12` ?
Result: 11.4

Q: What would you report for C/C(=C\COc1ccc2ccc(=O)oc2c1)C1=CC(=O)C(C)(C)O1 [GEIPARVARIN] ?
Result: 20.3
